Condition context: 303.15 K; 101.33 kPa; Liquid; Capillary tube (Ostwald / Ubbelohde) method
Quantity: viscosity (mPa·s)

{"Compound": "CCCCCC[n+]1ccccc1.O=S(=O)([N-]S(=O)(=O)C(F)(F)F)C(F)(F)F [1-hexylpyridinium bis(trifluromethylsulfonyl)imide]", "Quantity": "viscosity", "Value measured": 201.82}
{"Compound": "CCCC[n+]1ccccc1C.O=S(=O)([N-]S(=O)(=O)C(F)(F)F)C(F)(F)F", "Quantity": "viscosity", "Value measured": 72.05}
{"Compound": "CCCC[n+]1cccc(C)c1.O=S(=O)([N-]S(=O)(=O)C(F)(F)F)C(F)(F)F", "Quantity": "viscosity", "Value measured": 51.42}
{"Compound": "CCCC[n+]1ccccc1.O=S(=O)([N-]S(=O)(=O)C(F)(F)F)C(F)(F)F [1-butylpyridinium bis[(trifluoromethyl)sulfonyl]imide]", "Quantity": "viscosity", "Value measured": 48.11}
{"Compound": "CCCC[n+]1ccc(C)cc1.O=S(=O)([N-]S(=O)(=O)C(F)(F)F)C(F)(F)F", "Quantity": "viscosity", "Value measured": 44.42}

====

Reported viscosity is given for each of the following molecules.
Condition context: 308.15 K; 101.33 kPa; Liquid; Capillary tube (Ostwald / Ubbelohde) method
± gives the expanded uncertainty stated by the source.

{"Molecule": "CCCC[n+]1cccc(C)c1.O=S(=O)([O-])C(F)(F)F [1-butyl-3-methylpyridinium trifluoromethanesulfonate]", "viscosity": "78.04 ± 7.8 mPa·s"}
{"Molecule": "CCCC[n+]1ccccc1C.O=S(=O)([N-]S(=O)(=O)C(F)(F)F)C(F)(F)F", "viscosity": "56.95 ± 5.7 mPa·s"}
{"Molecule": "CCCC[n+]1ccccc1.O=S(=O)([N-]S(=O)(=O)C(F)(F)F)C(F)(F)F [1-butylpyridinium bis[(trifluoromethyl)sulfonyl]imide]", "viscosity": "38.08 ± 3.8 mPa·s"}
{"Molecule": "CCCC[n+]1cccc(C)c1.F[B-](F)(F)F [1-butyl-3-methylpyridinium tetrafluoroborate]", "viscosity": "97.03 ± 9.8 mPa·s"}

====

Reported surface tension liquid-gas is given for each of the following compounds.
Condition context: 313.15 K, Ring tensiometer

{"Compound": "CCCC[n+]1cccc(C)c1.O=S(=O)([O-])C(F)(F)F [1-butyl-3-methylpyridinium trifluoromethanesulfonate]", "surface tension liquid-gas [mN/m]": 36.9}
{"Compound": "CC[n+]1ccccc1.O=S(=O)([N-]S(=O)(=O)C(F)(F)F)C(F)(F)F [1-ethylpyridinium bis[(trifluoromethyl)sulfonyl]imide]", "surface tension liquid-gas [mN/m]": 35.2}
{"Compound": "CCCC[n+]1cccc(C)c1.O=S(=O)([N-]S(=O)(=O)C(F)(F)F)C(F)(F)F", "surface tension liquid-gas [mN/m]": 34.8}

====

Reported surface tension liquid-gas is given for each of the following molecules.
Condition context: 293.15 K, Ring tensiometer
± gives the expanded uncertainty stated by the source.
Quantity: surface tension liquid-gas

{"Molecule": "CCCC[n+]1cccc(C)c1.F[B-](F)(F)F [1-butyl-3-methylpyridinium tetrafluoroborate]", "Value measured": "47.5 ± 0.7 mN/m"}
{"Molecule": "CCCC[n+]1cccc(C)c1.O=S(=O)([O-])C(F)(F)F [1-butyl-3-methylpyridinium trifluoromethanesulfonate]", "Value measured": "38.6 ± 0.6 mN/m"}
{"Molecule": "CCCC[n+]1cccc(C)c1.O=S(=O)([N-]S(=O)(=O)C(F)(F)F)C(F)(F)F", "Value measured": "35.8 ± 0.6 mN/m"}
{"Molecule": "CC[n+]1ccccc1.O=S(=O)([N-]S(=O)(=O)C(F)(F)F)C(F)(F)F [1-ethylpyridinium bis[(trifluoromethyl)sulfonyl]imide]", "Value measured": "35.6 ± 0.6 mN/m"}

Measured values drawn from the NIST ThermoML archive (doi:10.1016/j.jct.2012.06.018) for this set.
